Attribution: PubChem BioAssay

Measured z-score, listed per entry for reference.
test: PSAC antagonists in infected red cells, primary screen, cell-based, P. falciparum Indochina, OD700, 18 h (AID 1157); details: P. falciparum Indochina infected erythrocytes, osmotic lysis OD700, 18 h; higher = more signal, called active from +8 up or from −8 down
MEASUREMENT TYPE: z-score

COMPOUND	READING
[N-]=[N+]=Nc1ccccc1C[C@]1(C(=O)NCc2ccccc2)N=C(c2ccc(OCCCO)cc2)O[C@H]1c1ccccc1	0.786
C[C@]12C(=O)N(CCCCCCO)[C@@H]3C(=O)N(c4ccc(Cl)cc4)CC=CC31O[C@@H]1/C=C\CCCOC(=O)C12 (stereo partly drawn)	-1.66
O=C1NC(=O)C2C1C=CC(C(O)c1c(F)cccc1Cl)N2Nc1ccccn1 (stereo not drawn)	0.828
CCCC=C(CCC)[C@@H](NP(=O)(c1ccccc1)c1ccccc1)c1ccc(C(F)(F)F)cc1	-1.24
NC(=O)N1C(=O)C2C(C1=O)C1C=C(c3ccc(CO)cc3)C2C(C2CC2)N1Cc1sc2ccccc2c1Cl (stereo not drawn)	1.39
CCOC(=O)C[C@H]1[C@H](OC(=O)c2ccccc2-c2ccccc2)[C@@H](NC(=O)c2ccc3ccccc3n2)c2cc(OCCCO)ccc2N1C(=O)c1ccc2ccccc2n1	-2.15
C[C@@H](OCc1ccccc1)C1NC(=O)[C@@]23C(=O)N[C@@H](Cc4ccccc4)C2[C@H](C)[C@@]2(C)O[C@H]2C3/C=C/C/C=C\CNC(=O)CNC1=O (stereo partly drawn)	-0.0634
NCCCCCCNC(=O)[C@H]1C[C@H]2C(=O)N[C@@H](Cc3ccccc3)C(=O)N2[C@H]1c1ccc(O)cc1	-2.2

###

Measured composite z-score, listed per entry for reference.
test system: Neuregulin-1 EGF-like domain; assay: binders of neuregulin-1 EGF-like domain, primary screen, biochemical, small-molecule microarray, 635 nm fluorescence (AID 1081); conditions: small-molecule microarray binding, higher = more signal;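 note: binding of the protein to compounds printed on small-molecule microarray slides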
MEASUREMENT TYPE: composite z-score

COMPOUND	MEASUREMENT TYPE	READING
CN(C)CCCNC(=O)[C@@]1(C)c2ccccc2C(=O)N(Cc2cc(C(F)(F)F)cc(C(F)(F)F)c2)[C@H]1c1ccc(CO)cc1	composite z-score	0.538
CC1CC/C=C\[C@H]2OC34C=CCN(c5ccc6ccccc6c5)C(=O)[C@H]3N(C(CO)C(C)C)C(=O)[C@@H]4C2C(=O)O1 (some centres undefined)	composite z-score	1.43
CC[C@@H]1[C@H]2C3C(=O)N(CC)C(=O)C3CC(=O)[C@H]2[C@H](c2ccc(C)cc2)N1S(=O)(=O)c1ccc(C)cc1 (some centres undefined)	composite z-score	0.57
CCOC(=O)C[C@H]1[C@H](OC(=O)c2ccccc2-c2ccccc2)[C@@H](NC(=O)CC(C)C)c2cc(OCCCO)ccc2N1C(=O)c1ccc2ccccc2n1	composite z-score	0.324
COCCCNC(=O)[C@]1(Cc2ccccc2N=[N+]=[N-])N=C(c2ccc(OCCCO)cc2)O[C@@H]1c1ccccc1N=[N+]=[N-]	composite z-score	1.15
O=C1NCC(=O)N2[C@@H]1C[C@@H](C(=O)O)[C@H]2c1ccc(O)cc1	composite z-score	1.39
CN(C)CCCNC(=O)[C@@]1(c2ccc([N+](=O)[O-])cc2)CC(=O)N(CC23CC4CC(CC(C4)C2)C3)[C@@H]1c1ccc(CO)cc1	composite z-score	1.35
COc1ccc(C(O)C2C=CC3C(=O)N(Cc4ccccc4)C(=O)C3N2n2cnnc2)c2ccccc12 (centres undefined)	composite z-score	1.32
CN(C)CCCCNC(=O)[C@H]1C[C@H]2C(=O)N3CCC[C@H]3C(=O)N2[C@H]1c1ccc(O)cc1	composite z-score	-0.239
CC(C)N1CC=CC23O[C@@H]4C=CCOC(=O)[C@@H]4[C@H]2C(=O)N(C(C)CO)[C@@H]3C1=O (some centres undefined)	composite z-score	0.9
CO[C@H]1O[C@H](CO)[C@@H](OC(=O)c2ccc(Br)cc2)[C@@H]2OC(=O)[C@@H](Cc3ccc4ccccc4c3)C/C=C/C[C@H](Cc3ccc4ccccc4c3)C(=O)O[C@@H]12	composite z-score	1.2
COc1cc(OC)c(C(O)C2C=CC3C(=O)N(c4ccccc4)C(=O)C3N2Nc2ccc(C#N)cc2)cc1Br (centres undefined)	composite z-score	1.34
NC(=O)NCC#Cc1ccc2c(c1)[C@]1(C(=O)N2)[C@H](c2ccc(O)cc2)N2[C@H](c3ccccc3)[C@H](c3ccccc3)OC(=O)[C@H]2[C@@H]1C(=O)Nc1nc2ccccc2s1	composite z-score	0.633
O=C1c2ccccc2[C@@]2(Cc3ccccc3N(C3CC3)C2=O)[C@H](c2ccc(CO)cc2)N1C1CCCCC1	composite z-score	-0.716
